Here, each record is paired with measured melting point data.

In the examples that follow, each entry is paired with its recorded melting point.
CC12CCC3c4ccc(C(=O)O)cc4CCC3C1CCC2C(=O)c1ccc(Oc2ccccc2)cc1 (stereo not drawn); 224 to 225 °C
C=C1CCC2C3CCC4CC(O)C(OCC)CC4(C)C3C(=O)CC12C (stereo not drawn); 103 to 108 °C

// query Note melting point for the molecule shown: O=C(O)Cc1c(Cl)nc(-c2cccc(O)c2)n1Cc1ccccc1
// result 220 to 222 °C

// query Note melting point for the molecule shown: CCOC(=O)c1cccc(CSc2nc(-c3ccc(OC)cc3)c(-c3ccc(OC)cc3)[nH]2)c1
// result 147 to 149 °C

// query Note melting point for the molecule shown: CCOC(=O)Cc1c(Cl)cnc2c(NC(=O)c3c(Cl)cccc3Cl)cccc12
// result 161 °C

// query Note melting point for the molecule shown: NC(=O)c1c(Cl)c(-c2ccccc2)n2c1CN(C(=O)Nc1cccc(C(=O)O)c1)CC2
// result 263 to 265 °C

// query Note melting point for the molecule shown: CCC(=S)C1=C(C)NC2=C(C(=O)c3ccccc32)C1c1ccccc1 (stereo not drawn)
// result 248 to 249 °C

###

Here, each record is paired with measured melting point data.

Cc1nc2c(O)cccn2c(=O)c1Cc1ccccc1; 124 to 125 °C
Cc1noc(NS(=O)(=O)c2ccccc2-c2ccc(-c3ncco3)cc2CN2CC(C)(C)CC2=O)c1C; 118 to 125 °C

Alright, here's another compound for you.
// query Note melting point for the compound shown: O=C(C=C(c1cc(Cl)cc(Cl)c1)C(F)(F)F)c1ccc(C(=O)Nc2ncc(Cl)cn2)cc1
// result 71 to 76 °C

###

parameter measured: melting point

// query Note melting point for the compound shown: C=CCNc1nc(N)nc2c1ncn2C1CC(F)C(CO)O1 (centres undefined)
// result 128 to 129 °C

// query Note melting point for the compound shown: CCCC(=O)Nc1nn(COCC[Si](C)(C)C)c2cc(-c3ccc(SC)cc3)ccc12
// result 225 °C

// query Note melting point for the compound shown: CCOC(=O)CCC(=O)c1c(COC(C)=O)c(COC(C)=O)cc2cc(OC)c(OC)cc12
// result 85 to 87 °C

// query Note melting point for the compound shown: O=C1COc2ccc(NCC(=O)N3CCC(Cc4ccc(F)cc4)CC3)cc2N1
// result 220 to 223 °C

###

Here, each record is paired with measured melting point data.

In the examples that follow, each entry is paired with its recorded melting point.
Cc1cc(F)c(NS(=O)(=O)c2ccccc2)cc1NS(=O)(=O)c1ccccc1; 146 °C
OC(CN1CC=C(c2ccc(Cl)cc2)CC1)c1ccc(Cl)cc1 (stereo unspecified); 152 to 153 °C
CCOC(=O)c1ccc(/C=C(\COCc2ccc(OC)cc2)Cn2ccnc2)c(OC)c1; 74 to 74.5 °C
CCN1c2ncc(C3(c4ccccc4)CO3)cc2C(=O)N(C)c2ccc(Cl)nc21 (stereo unspecified); 105 to 107 °C
COc1ccc(-c2nnc3c4ccccc4c(Nc4ccc(NC(=O)c5ccccn5)cc4)nn23)cc1; 301 to 305 °C
Cn1cc(C(=O)O)c(=O)c2cc(Cl)c(N3CCNCC3)cc21; 288 °C
Nc1nc(-c2ccccc2)nc2cccc(Oc3ccccc3)c12; 190 to 191 °C
N[C@@H](Cc1ccc(C(F)(F)F)cc1)[C@H](O)c1ccncc1 (racemic); 97 to 98 °C
CN1CC2=C(n3cnc(C#Cc4ccccc4)c3C1)S(=O)C=C2 (stereo unspecified); 143 to 144 °C
O=C(NO)c1ccc2c(c1)CN(C(=O)c1cc3ccccc3cn1)C2; 208 to 210 °C

// query Note melting point for the molecule shown: O=C(CC1c2ccccc2C(=O)N1C1CCCCC1)N1CCCCC1 (stereo unspecified)
// result 158 to 160 °C

// query Note melting point for the molecule shown: O=c1[nH]c2ncc(-c3ccc(-c4nnc[nH]4)cc3)nc2n1CCN1CCCCC1
// result 194 to 197 °C

// query Note melting point for the molecule shown: O=c1[nH]c2ncc(-c3ccc(-c4ncc[nH]4)cc3)nc2n1CCC1CCOCC1
// result 293 to 295 °C

// query Note melting point for the molecule shown: COc1ccc(N2CCN(c3ccc(-n4cnn(C(C)C)c4=O)cc3)CC2)cc1
// result 210 °C

// query Note melting point for the molecule shown: CCN(CC)CCN(CCN1CCCCC1)c1ccc(-c2nc3ccc(Cl)cc3[nH]2)cc1
// result 156 °C

// query Note melting point for the molecule shown: Cn1cnc2nc(-c3cc(C(C)(C)C)c(O)c(C(C)(C)C)c3)nn2c1=S
// result > 300 °C

// query Note melting point for the molecule shown: NNc1ccc2c(c1)CCNC2=O
// result 158 to 160 °C

// query Note melting point for the molecule shown: O=C(O)C(=O)c1ccc(OCCCCSc2ccc3ccccc3c2)cc1
// result 113 to 115 °C

// query Note melting point for the molecule shown: CCCCCCCCCCSC(=O)CS(=O)(=O)Nc1c(C(C)C)cccc1C(C)C
// result 57 to 59 °C

// query Note melting point for the molecule shown: COc1cc(NC(=O)N(c2ccc(N(C)C)cc2)C2CCCCCC2)c(OC(=O)[C@H](C)NC(=O)OCc2ccccc2)c(C(C)(C)C)c1
// result 126 °C

// query Note melting point for the molecule shown: CCCC=Cc1c(C(C)C)nc(C(C)C)c(CO)c1-c1ccc(C)cc1
// result 72 to 75 °C

// query Note melting point for the molecule shown: C[C@H]1C(=O)C[C@@H]2C[C@H]1OO[C@]2(C)/C=C\c1cc(C(F)(F)F)nc2cc(C(F)(F)F)ccc12
// result 160 °C

// query Note melting point for the molecule shown: Cc1nc(NC(=O)c2ccccc2)sc1C(=O)n1ccnc1
// result 228 to 231 °C

// query Note melting point for the molecule shown: COc1cccc2c(=O)n3c(C)c(Br)sc3nc12
// result 198 to 199 °C

// query Note melting point for the molecule shown: N#Cc1ccc(Nn2cnnc2)cc1-c1ccc(C(F)(F)F)cc1
// result 140 to 143 °C

// query Note melting point for the molecule shown: CCCCCCCCCC(=O)Nc1ccc(S(=O)(=O)Nc2nnc(C)s2)cc1
// result 141 to 142 °C

###

Here, each record is paired with measured melting point data.

In the examples that follow, each entry is paired with its recorded melting point.
COc1nccc(-c2c(-c3ccc(F)cc3)ncn2[C@H]2CC[C@H](O)CC2)n1; 188 to 190 °C
O=C(Oc1ccccc1)OC1CN(C(=O)Oc2ccccc2)CCC1c1ccccc1 (stereo not given); 153 to 154 °C

// query Note melting point for the compound shown: CC(C)(CO)Nc1nc2c(s1)CCc1cc(C#N)ccc1-2
// result 121 to 123 °C

// query Note melting point for the compound shown: CC(C)(C=O)N1C(=O)c2ccccc2C1=O
// result 80 to 82 °C

// query Note melting point for the compound shown: CC(C)(C#N)c1ccc2nc(O)nnc2c1
// result 183 to 185 °C

###

parameter measured: melting point

In the examples that follow, each entry is paired with its recorded melting point.
Cc1ccc(S(=O)(=O)N(C)SN(c2cc(C(F)(F)F)ccc2Cl)c2c([N+](=O)[O-])cc([N+](=O)[O-])cc2C(F)(F)F)cc1; 142 to 144 °C
Nc1ccc(CCOC(=O)Nc2ccc(Nc3ccccc3)cc2)cc1; 140 °C
NC(CN1C(=O)C2(COc3cc4c(cc32)OCO4)c2c(Cl)cccc21)=NO (stereo unspecified); 180 to 185 °C
Cc1c(C2=CCC(c3ccccc3)(N(C)C)CC2)[nH]c2ccccc12 (stereo unspecified); 168 to 180 °C
Clc1ccccc1C(Oc1ccccc1)C1CNCCO1 (stereo unspecified); 80 to 102 °C

Alright, here's another compound for you.
// query Note melting point for the compound shown: CCN(CC)c1ccc(C2(c3c(C)n(CC)c4ccccc34)OC(=O)c3cccnc32)c(OC2CCCC2)c1 (stereo unspecified)
// result 120 to 125 °C

###

parameter measured: melting point

In the examples that follow, each entry is paired with its recorded melting point.
CN(C)C(=O)c1cc(-c2nccs2)[nH]c1C(CC1CCOCC1)c1ccc(S(=O)(=O)C2CC2)cc1 (stereo not drawn); 180 to 182 °C
CCc1nccn1-c1ccccc1C(=O)Nc1ccc(C(=O)N2CCC(F)(F)/C(=C\C(=O)NC3CC3)c3ccccc32)cc1; > 260 °C

Alright, here's another compound for you.
// query Note melting point for the compound shown: Cc1nc2ccccc2n1Cc1ccc(C(=O)N(C)C2CCNCC2)cc1
// result 196 to 198 °C

###

parameter measured: melting point

In the examples that follow, each entry is paired with its recorded melting point.
Cc1ccccc1C(=O)Nc1ccc(C(=O)O)cn1; 235 to 238 °C
COc1cc(C(=O)O)ccc1Cc1cn(C)c2ccc(CCNC(=O)N3CCOCC3)cc12; 221 to 226 °C
Nc1ccc(S(=O)(=O)c2cc(-c3ccccc3)nc(N3CCCC3)c2)cc1; 255 to 258 °C
Nc1nc2c(ncn2CCC(CO)COC(=O)c2ccccc2)c(=O)[nH]1 (stereo not given); 156 to 168 °C

Alright, here's another compound for you.
// query Note melting point for the compound shown: C=CCOc1ccc(C=Cc2ccc([N+](=O)[O-])cc2)cc1
// result 114 °C
